Each recorded value in this set is attributed to patent US20230115176A1.

Assayed System: Human C5 (Homo sapiens)
Construct: purchased Complement Technology
Sequence (P01031 19-1676): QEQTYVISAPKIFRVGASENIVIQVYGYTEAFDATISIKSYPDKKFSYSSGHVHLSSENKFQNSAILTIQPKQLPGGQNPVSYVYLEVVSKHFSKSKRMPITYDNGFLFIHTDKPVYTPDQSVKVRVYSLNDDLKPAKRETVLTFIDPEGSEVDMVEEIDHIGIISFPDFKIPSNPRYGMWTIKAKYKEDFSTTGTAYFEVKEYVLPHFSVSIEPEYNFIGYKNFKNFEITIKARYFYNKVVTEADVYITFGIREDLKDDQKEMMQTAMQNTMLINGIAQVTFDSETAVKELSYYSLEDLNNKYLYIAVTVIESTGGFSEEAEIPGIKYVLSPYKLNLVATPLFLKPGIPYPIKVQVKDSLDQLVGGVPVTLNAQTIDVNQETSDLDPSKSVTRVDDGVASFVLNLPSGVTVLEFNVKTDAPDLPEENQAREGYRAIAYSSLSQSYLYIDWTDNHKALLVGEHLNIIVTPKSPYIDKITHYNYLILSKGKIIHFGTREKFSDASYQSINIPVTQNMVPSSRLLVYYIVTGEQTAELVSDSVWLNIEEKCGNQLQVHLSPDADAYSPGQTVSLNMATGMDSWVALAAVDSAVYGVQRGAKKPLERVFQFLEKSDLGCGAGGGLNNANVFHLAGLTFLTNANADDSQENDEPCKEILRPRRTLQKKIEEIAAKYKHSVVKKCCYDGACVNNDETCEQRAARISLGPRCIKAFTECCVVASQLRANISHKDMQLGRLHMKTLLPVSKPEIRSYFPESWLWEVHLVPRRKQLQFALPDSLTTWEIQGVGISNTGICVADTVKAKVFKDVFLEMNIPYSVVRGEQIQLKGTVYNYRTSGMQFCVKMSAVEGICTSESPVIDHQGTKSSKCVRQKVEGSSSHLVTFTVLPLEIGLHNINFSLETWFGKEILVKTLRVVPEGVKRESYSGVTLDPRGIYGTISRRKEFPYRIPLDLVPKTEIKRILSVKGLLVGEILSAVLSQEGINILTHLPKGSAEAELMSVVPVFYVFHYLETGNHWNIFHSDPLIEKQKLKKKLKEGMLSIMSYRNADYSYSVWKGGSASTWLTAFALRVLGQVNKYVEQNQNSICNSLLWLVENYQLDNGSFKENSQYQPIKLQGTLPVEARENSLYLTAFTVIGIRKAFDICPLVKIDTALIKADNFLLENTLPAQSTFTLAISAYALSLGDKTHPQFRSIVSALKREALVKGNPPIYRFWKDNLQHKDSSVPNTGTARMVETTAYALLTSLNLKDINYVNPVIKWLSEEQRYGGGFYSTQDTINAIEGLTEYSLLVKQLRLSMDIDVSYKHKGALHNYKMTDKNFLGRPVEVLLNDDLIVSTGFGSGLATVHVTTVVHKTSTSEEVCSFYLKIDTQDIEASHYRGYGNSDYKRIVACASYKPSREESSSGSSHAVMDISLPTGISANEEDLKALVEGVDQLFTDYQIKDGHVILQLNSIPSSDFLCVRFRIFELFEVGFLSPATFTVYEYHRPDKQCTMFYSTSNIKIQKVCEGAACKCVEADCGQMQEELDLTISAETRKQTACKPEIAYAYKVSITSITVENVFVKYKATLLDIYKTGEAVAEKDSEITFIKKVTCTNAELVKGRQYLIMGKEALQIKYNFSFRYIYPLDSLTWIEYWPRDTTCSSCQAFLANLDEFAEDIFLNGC
Procedure Text: Surface plasmon resonance (SPR), immobilized human C5 (Example 9, Table 18)
Format: binding
Assay Setup: immobilized human C5, equilibrium dissociation constant; read-out: SPR C5 EQ KD
pKd: −log10 of the molar value.
Readout Label: pKd

{"Molecule Smiles": "COC(=O)CCn1ccc2c(CNC(=O)Nc3ccc(OC)c(OCCCC(C)C)c3)ccnc21", "Recorded Result": 7.05}
{"Molecule Smiles": "COc1ccc(NC(=O)NCc2ccnc3c2ccn3CCNS(C)(=O)=O)cc1OCCCC(C)C", "Recorded Result": 6.96}
{"Molecule Smiles": "COCCOc1cc(CNC(=O)Nc2ccc(OC)c(OCCCC(C)C)c2)ccn1", "Recorded Result": 6.92}
